# System: DeltatarO mutant
# experiment: S. aureus survival, RN4220 and DeltatarO strains – OD600, teichoic acid synthesis inhibitors, primary screen (AID 463173)
# test_conditions: S. aureus RN4220 wild type/DeltatarO growth, OD600, 18 h, stronger effect = lower value, screened at 18.75 µg/mL (by protocol)
Screen size: about 52,000 compounds; about 4,300 (8.3%) were called active. What follows is part of a selection rich in actives, with near analogues and random picks from the rest.
Note to self: survival under 80% means True, ties and anything higher get False.

Worked examples, 4 molecules total:
>  <molecule>
Cc1ccc(NS(=O)(=O)c2ccc3c(c2)CCN3C(=O)C2CC2)c(C)c1

>  <classification>
True

$$$$
>  <molecule>
CCOc1ccccc1Oc1ncnc2c1oc1ccccc12

>  <classification>
False

$$$$
>  <molecule>
CC1CN(C(=O)CCC(=O)NCc2cccs2)c2cc(Cl)ccc2O1 (stereo not given)

>  <classification>
False

$$$$
>  <molecule>
CCCNc1nc2c(c(=O)n(C)c(=O)n2C)n1CC(O)COc1ccccc1 (stereo not given)

>  <classification>
True

$$$$

Lab note: survival threshold 80%. Does this molecule come in strictly under it? CC(C)(C)OC(=O)N1CCC(c2c(C(=O)Nc3ccc4c(c3)OCCO4)cnn2-c2ccccc2)CC1
False
